TEST SYSTEM: Heat shock protein HSP 90-alpha (Homo sapiens)
PROTOCOL TEXT: Binding affinity to human recombinant full length biotinylated Hsp90alpha assessed as equilibrium dissociation constants by biolayer interferometric analysis
TEST READOUT: Kd (µM)
Express the result in µM but write the number alone.

Could you share which Kd value was measured for C/C(=C\CC12OCC3CC(C=C4C(=O)c5c(O)cccc5OC431)C2=O)CO (stereo unspecified) ?
38

---

TEST SYSTEM: Heat shock protein HSP 90-alpha (Homo sapiens)
PROTOCOL TEXT: Inhibition of 6x-His tagged human recombinant full length Hsp90alpha ATPase preincubated for 0.5 hrs followed by ATP addition measured after 30 mins by HTRF assay
Please use Criterion met for IC50 under 40 µM and Criterion not met for everything else, ties included.

Answer whether the compound CC(C)=CCC12OC(C)(C)C3CC(C=C4C(=O)c5c(O)cccc5OC431)C2=O (centres undefined) has IC50 strictly less than 40 µM
Criterion met

Also check C=CCC12OCC3CC(C=C4C(=O)c5c(O)cccc5OC431)C2=O (centres undefined)
Criterion met

Also check COc1cccc2c1C(=O)C1=CC3CC4COC(CC=C(C)C)(C3=O)C14O2 (centres undefined)
Criterion not met

Also check C/C(=C\CC12OC(C)(C)C3CC(C=C4C(=O)c5c(O)cccc5OC431)C2=O)CO (centres undefined)
Criterion met

Also check C/C(=C\CC12OCC3CC(C1=O)C1OC14C(=O)c1c(O)cccc1OC324)CC=O (centres undefined)
Criterion met

Also check CC(=O)Oc1cccc2c1C(=O)C1=CC3CC4C(C)(C)OC(CC=C(C)C)(C3=O)C14O2 (centres undefined)
Criterion not met

Also check C/C(=C\CC12OC(C)(C)C3CC(C=C4C(=O)c5c(O)cccc5OC431)C2=O)CC=O (centres undefined)
Criterion met

Also check CCOC(=O)COc1cccc2c1C(=O)C1=CC3CC4C(C)(C)OC(CC=C(C)C)(C3=O)C14O2 (centres undefined)
Criterion not met

Also check CC(C)=CCC12OCC3CC(C=C4C(=O)c5ccccc5OC431)C2=O (centres undefined)
Criterion met

---

Give IC50 for every item shown.
System: HT-29
PROTOCOL TEXT: Antiproliferative activity against human HT-29 cells assessed as growth inhibition by MTT assay
Assay type: functional, cell-based
Express the result in nM but write the number alone.

Any idea what IC50 came out for "CC(C)=CCC[C@]1(C)C=Cc2c(O)c3c(c(CC=C(C)C)c2O1)O[C@]12C(=C[C@@H]4C[C@H]1C(C)(C)O[C@@]2(C/C=C(/C)C(=O)O)C4=O)C3=O" on HT-29?
2370

Also check C/C(=C\CC12OCC3CC(C=C4C(=O)c5c(O)cccc5OC431)C2=O)CO (configuration not stated)
3020

---

TEST SYSTEM: Heat shock protein HSP 90-alpha (Homo sapiens, UniProt P07900)
PROTOCOL TEXT: Inhibition of 6x-His tagged human recombinant full length Hsp90alpha ATPase preincubated for 0.5 hrs followed by ATP addition measured after 30 mins by HTRF assay
TEST READOUT: pIC50
Lab note — pIC50 values are minus log10 of concentrations in M.

Any idea what pIC50 came out for CC(=O)Oc1cccc2c1C(=O)C1=CC3CC4COC(CC=C(C)C)(C3=O)C14O2 (centres undefined) on Heat shock protein HSP 90-alpha (Homo sapiens, UniProt P07900)?
4.28

Also check "CC(C)=CCC[C@]1(C)C=Cc2c(O)c3c(c(CC=C(C)C)c2O1)O[C@]12C(=C[C@@H]4C[C@H]1C(C)(C)O[C@@]2(C/C=C(/C)C(=O)O)C4=O)C3=O"
4.66

Also check C/C(=C\CC12OCC3CC(C1=O)C1OC14C(=O)c1c(O)cccc1OC324)CC(=O)O (centres undefined)
4.37

Also check C/C(=C\CC12OC(C)(C)C3CC(C=C4C(=O)c5c(O)cccc5OC431)C2=O)CCl (centres undefined)
4.82

---

Give IC50 for every item shown.
TEST SYSTEM: Heat shock protein HSP 90-alpha (Homo sapiens, UniProt P07900)
PROTOCOL TEXT: Inhibition of 6x-His tagged human recombinant full length Hsp90alpha ATPase preincubated for 0.5 hrs followed by ATP addition measured after 30 mins by HTRF assay
Express the result in µM but write the number alone.

Could you share which IC50 value was measured for C=CCC12OCC3CC(C=C4C(=O)c5ccccc5OC431)C2=O (stereo not given) ?
28

Also check COc1cccc2c1C(=O)C1=CC3CC4C(C)(C)OC(CC=C(C)C)(C3=O)C14O2 (stereo not given)
76.8

Also check CC(C)=CCC12OCC3CC(C=C4C(=O)c5c(cccc5OS(C)(=O)=O)OC431)C2=O (stereo not given)
13.6

Also check C/C(=C\CC12OCC3CC(C=C4C(=O)c5c(O)cccc5OC431)C2=O)CO (stereo not given)
3.68

Also check CC(C)=CCC12OCC3CC(C=C4C(=O)c5c(O)cccc5OC431)C2=O (stereo not given)
14.3

Also check CC(C)=CCC12OC(C)(C)C3CC(C=C4C(=O)c5ccccc5OC431)C2=O (stereo not given)
23.9

Also check CC(C)=CCC12OC(C)(C)C3CC(C=C4C(=O)c5c(cccc5OS(C)(=O)=O)OC431)C2=O (stereo not given)
67.1

Also check CC(C)=CCC12OC(C)(C)C3CC(C=C4C(=O)c5c(O)cc(O)cc5OC431)C2=O (stereo not given)
22.4

Also check C/C(=C\CC12OCC3CC(C=C4C(=O)c5c(O)cccc5OC431)C2=O)CCl (stereo not given)
6.2
